Please provide measured SCD5 % Max Inhibition for the entries that follow.
target: SCD5 (Homo sapiens, UniProt Q86SK9)
Construct: host or cells: S. cerevisiae ole1Δ strain (W303 pdr1Δ pdr3Δ background), plasmid pRS316 with TDH3 promoter and CYC1 terminator
Sequence (Q86SK9 whole entry): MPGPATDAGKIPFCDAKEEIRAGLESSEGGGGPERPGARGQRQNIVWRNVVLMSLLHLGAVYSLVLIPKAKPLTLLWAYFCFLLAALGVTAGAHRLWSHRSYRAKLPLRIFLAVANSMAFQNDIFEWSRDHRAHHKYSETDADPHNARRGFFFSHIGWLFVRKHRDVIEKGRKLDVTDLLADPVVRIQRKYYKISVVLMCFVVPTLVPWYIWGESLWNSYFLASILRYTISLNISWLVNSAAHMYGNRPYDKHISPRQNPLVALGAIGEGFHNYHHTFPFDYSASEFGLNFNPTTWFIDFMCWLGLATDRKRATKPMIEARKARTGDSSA
experimental-details: Growth inhibition of humanized yeast strain expressing SCD5 as sole desaturase
Assay type: cell-based
test-parameters: humanized yeast strain expressing SCD5
// note: answer is a bare numeric in %

Fill in the blank: the reported SCD5 % Max Inhibition of N#Cc1cccc(N2CC(C(=O)N3CCC(c4nc(Cl)no4)CC3)CC2=O)c1 (stereo not drawn) [Compound 350] is ____.
56.3

What do we get for COc1ccc(-c2noc(C3CCN(C(=O)[C@@H]4CC(=O)N(c5ccc(C)c(C)c5)C4)CC3)n2)cc1 (single isomer, unassigned) [Compound 63] ?
9.39

What do we get for Cc1nn(C)c2cc(-c3nsc(C4CCN(C(=O)CNC(=O)c5ccccc5)CC4)n3)ccc12 [Compound 250] ?
14.48

What do we get for CCN1C(=O)COc2cc(-c3noc(C4CCN(C(=O)CNC(=O)c5ccccc5)CC4)n3)ccc21 [Compound 111] ?
32.73

What do we get for CCOc1ccc(-c2noc(C3CCN(C(=O)CNC(=O)c4ccccc4)CC3)n2)cc1OC [Compound 155] ?
67.35

What do we get for Cc1c2ccc(-c3noc(C4CCN(C(=O)CNC(=O)c5ccccc5)CC4)n3)cc2nn1C(C)C [Compound 289] ?
77.71

What do we get for Cn1c(=O)n(C)c2cc(-c3noc(C4CCN(C(=O)C5CC(=O)N(c6ccccc6)C5)CC4)n3)ccc21 (stereo not drawn) [Compound 123] ?
9.69

What do we get for CCOc1ccc(-c2noc(N3CCC(C(=O)N4CCOC(c5ccccc5)C4)CC3)n2)cc1OC (stereo not drawn) [Compound 112] ?
21.21

What do we get for Cn1c(=O)[nH]c2ccc(-c3noc(C4CCN(C(=O)CNC(=O)c5ccccc5)CC4)n3)cc21 [Compound 162] ?
76.89

What do we get for Cc1nn(C)c2cc(-c3noc(C4CCN(C(=O)CC(C)(C)C)CC4)n3)ccc12 [Compound 263] ?
7.20

What do we get for CC(C)n1ncc2ccc(-c3noc(C4CCN(C(=O)C5CC(=O)N(c6ccccc6)C5)CC4)n3)cc21 (stereo not drawn) [Compound 174] ?
10.95

What do we get for Cc1nn(C)c2cc(-c3noc(C4(C)CCN(C(=O)CNC(=O)c5ccccc5)CC4)n3)ccc12 [Compound 227] ?
6.17

What do we get for O=C(c1ccccc1)N1CCC(c2nc(N3CC4(CCCO4)C3)no2)CC1 [Compound 335] ?
61.2

What do we get for Cc1nn(C)c2cc(-c3nc(C4CCN(C(=O)C5CC(=O)N(c6cccc(C#N)c6)C5)CC4)no3)ccc12 (stereo not drawn) [Compound 331] ?
24.9

What do we get for CCOc1ccc(-c2noc(N3CCC(C(=O)N4CCO[C@@H](c5ccccc5)C4)CC3)n2)cc1OC [Compound 217] ?
12.62

What do we get for COc1cccc(-c2noc(C3CC(=O)N(c4ccc(C)c(C)c4)C3)n2)c1 (stereo not drawn) [Compound 489] ?
61.11

What do we get for COc1ccc(-c2noc(C3CCN(C(=O)C4CC(=O)N(c5cccc(C#N)c5)C4)CC3)n2)cc1OC(C)C (stereo not drawn) [Compound 296] ?
22.6

What do we get for Cc1nn(C)c2cc(-c3noc(N4CCC(C(=O)N5CCO[C@H](c6ccccc6)C5)CC4)n3)ccc12 [Compound 211] ?
6.95

What do we get for CCOc1cc(-c2noc(C3CCN(C(=O)CNC(=O)c4ccccc4)CC3)n2)ccc1OC [Compound 199] ?
3.87

What do we get for COc1ccccc1-c1noc(C2CCN(C(=O)CNC(=O)c3ccc(C)c(C)c3)CC2)n1 [Compound 58] ?
66.93

What do we get for O=C(C1CC(=O)N(c2ccccc2)C1)N1CCC(c2nc(N3CC4(COC4)C3)no2)CC1 (stereo not drawn) [Compound 231] ?
3.11

What do we get for Cc1nn(C)c2cc(-c3noc(N4CCN(C(=O)c5cc(-c6ccccc6)no5)CC4)n3)ccc12 [Compound 103] ?
68.60

What do we get for COc1ccc(-c2nnc(C3CCN(C(=O)CNC(=O)c4ccccc4)CC3)o2)cc1OC [Compound 39] ?
79.10

What do we get for O=C(NCC(=O)N1CCC(c2nc(-c3ccc4nsnc4c3)no2)CC1)c1ccccc1 [Compound 104] ?
77.11

What do we get for COC(=O)N1CCC(c2nc(-c3ccc4c(C)nn(C)c4c3)no2)CC1 [Compound 273] ?
55.0

What do we get for COc1ccc(-c2noc(C3CCN(C(=O)Cc4ccccc4)CC3)n2)cc1OC [Compound 44] ?
10.99

What do we get for COc1ccc(-c2noc(C3CCN(C(=O)CNc4nccc5ccccc45)CC3)n2)cc1OC [Compound 55] ?
74.78

What do we get for CCOc1ccc(-c2noc(C3CCN(C(=O)CNC(=O)c4ccccc4)CC3)n2)nc1OC [Compound 107] ?
74.80

What do we get for Cc1nn(C)c2cc(-c3noc(C4CCN(C(=O)[C@@H]5CN(c6ccccc6)C(=O)O5)CC4)n3)ccc12 [Compound 149] ?
38.72

What do we get for CCOC(=O)C(C)(C)n1cc2ccc(-c3noc(C4CCN(C(=O)C5CC(=O)N(c6ccccc6)C5)CC4)n3)cc2n1 (stereo not drawn) [Compound 193] ?
85.76

From: patent US11873298B2
